assay: Oral administration to fasted beagles with ascorbic, citric or tartaric acid, plasma drug disposition parameters (Experimental Example 3); type: in vivo; conditions: dog, plasma, po, 3 mg/kg, 3 mg/kg oral + ascorbic acid 9 mg/kg (1:3), n=4; read-out: Cmax mean ± SE
MEASURED PARAMETER: Cmax (ng/mL)
Answer format: numeric, ng/mL implied, no suffix.

Exercise: # Cmax lookup, item Oc1ccc([C@@H]2CNC[C@H]2c2cccc(O)c2Cl)cc1O (relative stereo)
Solution: 187

* * *

test: Drug disposition after intravenous injection to beagles, plasma concentration-time curve (Experimental Example 1); type: in vivo; settings: dog, iv, 1 mg/kg, 1 mg/kg iv, phase c, read-out: t1/2c
MEASURED PARAMETER: half-life (min)
Give just the numeric value; min need not be written.

Exercise: // query half-life value for entry Br.Oc1ccc([C@@H]2CNC[C@H]2c2cccc(O)c2Cl)cc1O (relative stereo)
Solution: 26.9

* * *

assay: Oral administration to fasted beagles with ascorbic, citric or tartaric acid, plasma drug disposition parameters (Experimental Example 3); type: in vivo; details: dog, plasma, po, 3 mg/kg, 3 mg/kg oral + ascorbic acid 9 mg/kg (1:3), n=4; read-out: AUC (0-6 hr) mean ± SE
MEASURED PARAMETER: AUC(0-t) at 6 h (ng·h/mL)
Give just the numeric value; ng·h/mL need not be written.

Exercise: GET /values?readout=AUC(0-t) at 6 h&item= Oc1ccc([C@@H]2CNC[C@H]2c2cccc(O)c2Cl)cc1O (relative stereo)
Solution: 72.6

* * *

Assay: Oral administration to fasted beagles with ascorbic, citric or tartaric acid, plasma drug disposition parameters (Experimental Example 3)
Format: in vivo
Conditions: dog, plasma, po, 3 mg/kg, 3 mg/kg oral + ascorbic acid 3 mg/kg (1:1), n=4; read-out: Cmax mean ± SE
Description: Compound (IX) and ascorbic acid, citric acid or tartaric acid were weighed, pulverized thoroughly and mixed together in an agate mortar. […] An internal standard substance (IS 50 ng in 50 μl) was added to 1 ml of blood plasma. […] The concentration was determined from the ratio of the peak height of compound (IX) to that of IS. […] The AUC value in the period of 0 to 6 hours was determined from each of these curves. […]
MEASURED PARAMETER: Cmax (ng/mL)
Form entry: value (ng/mL) — number only.

Exercise: Need Cmax, item Oc1ccc([C@@H]2CNC[C@H]2c2cccc(O)c2Cl)cc1O (relative stereo)
Solution: 33.8

* * *

test: Oral administration to fasted beagles with ascorbic, citric or tartaric acid, plasma drug disposition parameters (Experimental Example 3); format: in vivo; conditions: dog, plasma, po, 3 mg/kg, 3 mg/kg oral + tartaric acid 15 mg/kg (1:5), n=4; read-out: AUC (0-6 hr) mean ± SE
MEASURED PARAMETER: AUC(0-t) at 6 h (ng·h/mL)
Express it in ng·h/mL; write the number only.

Exercise: Record request: AUC(0-t) at 6 h value, item Oc1ccc([C@@H]2CNC[C@H]2c2cccc(O)c2Cl)cc1O (relative stereo)
Solution: 40.4

* * *

experiment: Drug disposition after intravenous injection to beagles, plasma concentration-time curve (Experimental Example 1); type: in vivo; conditions: dog, 1 mg/kg iv, read-out: Vc
MEASURED PARAMETER: Vd (L/kg)
Give the number; L/kg is assumed, so skip it.

Exercise: Quick one: Vd of Br.Oc1ccc([C@@H]2CNC[C@H]2c2cccc(O)c2Cl)cc1O (relative stereo) [compound (VIII)] ?
Solution: 0.44

* * *

experiment: Drug disposition after intravenous injection to beagles, plasma concentration-time curve (Experimental Example 1); format: in vivo; conditions: dog, 1 mg/kg iv, read-out: MRT (mean residence time in the plasma) (converted)
MEASURED PARAMETER: MRT (min)
Kindly provide the numeric value in min only, without the unit symbol.

Exercise: Using the record for Br.Oc1ccc([C@@H]2CNC[C@H]2c2cccc(O)c2Cl)cc1O (relative stereo) , report its MRT.
Solution: 14.5

* * *

assay: Oral administration to fasted beagles with ascorbic, citric or tartaric acid, plasma drug disposition parameters (Experimental Example 3); type: in vivo; details: dog, plasma, po, 3 mg/kg, 3 mg/kg oral + ascorbic acid 9 mg/kg (1:3), n=4; read-out: Tmax mean ± SE (converted)
MEASURED PARAMETER: Tmax (min)
Supply the numeric figure in min, leaving out any unit text.

Exercise: Any idea what its Tmax is? The compound is Oc1ccc([C@@H]2CNC[C@H]2c2cccc(O)c2Cl)cc1O (relative stereo)
Solution: 43

* * *

assay: Oral administration to fasted beagles of compound (II) or (III) with ascorbic acid, plasma drug disposition parameters (Experimental Examples 5 and 6); conditions: dog, plasma, po, 3 mg/kg, Tmax mean ± SE, 3 mg/kg oral + ascorbic acid 15 mg/kg, n=2
MEASURED PARAMETER: Tmax (min)
The reply should be a number in min, with the unit left off.

Exercise: Please give the measured Tmax for this molecule: CS(=O)(=O)O.Oc1ccc(C2CNCCc3c2cc(O)c(O)c3Cl)cc1 (stereo not shown) [compound (III), reference compound]
Solution: 30

* * *

assay: Oral administration to fasted beagles with ascorbic, citric or tartaric acid, plasma drug disposition parameters (Experimental Example 3); assay type: in vivo; settings: dog, plasma, po, 3 mg/kg, 3 mg/kg oral + citric acid 15 mg/kg (1:5), n=4; read-out: AUC (0-6 hr) mean ± SE
MEASURED PARAMETER: AUC(0-t) at 6 h (ng·h/mL)
Express the result in ng·h/mL but write the number alone.

Exercise: Suppose we examine the compound Oc1ccc([C@@H]2CNC[C@H]2c2cccc(O)c2Cl)cc1O (relative stereo) [compound (IX)] ; what AUC(0-t) at 6 h value has been reported?
Solution: 50.7

* * *

test: Drug disposition after intravenous injection to beagles, plasma concentration-time curve (Experimental Example 1); format: in vivo; settings: dog, 1 mg/kg iv, read-out: CP^0
MEASURED PARAMETER: C0 (ng/mL)
State just the number; it will be interpreted in ng/mL.

Exercise: Return reported C0; argument: Br.Oc1ccc([C@@H]2CNC[C@H]2c2cccc(O)c2Cl)cc1O (relative stereo)
Solution: 2290

* * *

test: Oral administration to fasted beagles with L-cysteine or L-aspartic acid, plasma drug disposition parameters (Experimental Example 4); format: in vivo; settings: dog, plasma, po, 3 mg/kg, 3 mg/kg oral + L-aspartic acid 15 mg/kg, n=2; read-out: AUC (0-8 hr) mean ± SE
MEASURED PARAMETER: AUC(0-t) at 8 h
# answer = value followed by unit

Exercise: Quick one: AUC(0-t) at 8 h for Oc1ccc([C@@H]2CNC[C@H]2c2cccc(O)c2Cl)cc1O (relative stereo) [compound (IX)] ?
Solution: 37.5 ng·h/mL

* * *

assay: Oral administration to fasted beagles with ascorbic, citric or tartaric acid, plasma drug disposition parameters (Experimental Example 3); type: in vivo; details: dog, plasma, po, 3 mg/kg, 3 mg/kg oral, no organic acid (control), n=4; read-out: Cmax mean ± SE
MEASURED PARAMETER: Cmax (ng/mL)
Provide only the numeric value, understood in ng/mL.

Exercise: Could you share which Cmax value was measured for Oc1ccc([C@@H]2CNC[C@H]2c2cccc(O)c2Cl)cc1O (relative stereo) ?
Solution: 21

* * *

experiment: Oral administration to fasted beagles of compound (II) or (III) with ascorbic acid, plasma drug disposition parameters (Experimental Examples 5 and 6); conditions: dog, plasma, po, 3 mg/kg, AUC (0-8 hr) mean ± SE, 3 mg/kg oral, none (control), n=2
MEASURED PARAMETER: AUC(0-t) at 8 h (ng·h/mL)
Provide only the numeric value, understood in ng·h/mL.

Exercise: Tell me the measured AUC(0-t) at 8 h of CS(=O)(=O)O.Oc1ccc(C2CNCCc3c2cc(O)c(O)c3Cl)cc1 (stereo not shown) [compound (III), reference compound] , please.
Solution: 59.8

* * *

assay: Oral administration to fasted beagles with L-cysteine or L-aspartic acid, plasma drug disposition parameters (Experimental Example 4); type: in vivo; details: dog, plasma, po, 3 mg/kg, 3 mg/kg oral + L-cysteine 15 mg/kg, n=2; read-out: Tmax mean ± SE
MEASURED PARAMETER: Tmax (h)
The reply should be a number in h, with the unit left off.

Exercise: // lookup Tmax for Oc1ccc([C@@H]2CNC[C@H]2c2cccc(O)c2Cl)cc1O (relative stereo)
Solution: 1.17

* * *

experiment: Oral administration to fasted beagles with ascorbic, citric or tartaric acid, plasma drug disposition parameters (Experimental Example 3); type: in vivo; conditions: dog, plasma, po, 3 mg/kg, 3 mg/kg oral + citric acid 15 mg/kg (1:5), n=4; read-out: Tmax mean ± SE (converted)
MEASURED PARAMETER: Tmax (min)
Lab book: enter the figure in min, no units written.

Exercise: Record request: Tmax value, item Oc1ccc([C@@H]2CNC[C@H]2c2cccc(O)c2Cl)cc1O (relative stereo) [compound (IX)]
Solution: 29
